Biological target: GlcNAc(b1-3)Gal(b1-4)GlcNAc(b1-3)[GlcNAc(b1-3)Gal(b1-4)GlcNAc(b1-3)]GalNAc
Assay: glycan array binding signal (z-score within array); higher = stronger binding
Settings: glycan notation: IUPAC condensed, linker removed
The entries come from a sample that favours the strongest signals as a whole.
measured property: glycan array binding signal (z-score)

Look at this binder and give its reported glycan array binding signal (z-score). Gal 4 (Mus musculus), P56470 (protein) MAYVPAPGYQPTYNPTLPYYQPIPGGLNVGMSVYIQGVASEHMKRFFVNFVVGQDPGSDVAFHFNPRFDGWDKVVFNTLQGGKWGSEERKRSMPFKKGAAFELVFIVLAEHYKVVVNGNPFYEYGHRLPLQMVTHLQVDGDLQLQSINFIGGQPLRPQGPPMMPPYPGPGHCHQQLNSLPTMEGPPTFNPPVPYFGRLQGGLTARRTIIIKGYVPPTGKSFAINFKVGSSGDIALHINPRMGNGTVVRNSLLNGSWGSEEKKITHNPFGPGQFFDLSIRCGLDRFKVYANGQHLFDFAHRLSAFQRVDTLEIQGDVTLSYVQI
-0.255

// query glycan array binding signal (z-score) value for entry GNA (Galanthus nivalis), P30617 (protein) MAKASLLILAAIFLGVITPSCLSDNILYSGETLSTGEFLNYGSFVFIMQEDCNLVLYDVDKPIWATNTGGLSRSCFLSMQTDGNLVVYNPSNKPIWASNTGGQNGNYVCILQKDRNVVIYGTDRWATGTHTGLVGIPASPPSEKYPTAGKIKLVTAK
-0.172
